tested on: Enterobacter cloacae; assay: Antibacterial activity against Enterobacter cloacae 1454 assessed as growth inhibition by microbroth dilution assay; assay type: functional
Numbered stars: 1 amine (or outer) side, 2 acyl side, 3 side chain; on linkers, the order of the positions; unused ones are H or OH. Square brackets hold non-standard residues; d marks the D form. Peptide text beside a SMILES is read from it. X1 = NN([C@H](Cc1ccccc1)C(=O)[*:2])[*:1]; Orn(Nα-NH2) = NCCC[C@H](NN)C(=O)O; Orn = NCCC[C@H](N)C(=O)O
reportedMetric: MIC (µM)
Express your answer in µM, writing the number without its unit.

Lab note: measured MIC of CC(C)C[C@@H]1NC(=O)[C@H](CCCN)NC(=O)[C@H](C(C)C)NC(=O)[C@@H]2CCCN2C(=O)[C@@H](Cc2ccccc2)NC(=O)[C@H](CC(C)C)NC(=O)[C@H](CCCN)NC(=O)[C@H](C(C)C)NC(=O)[C@@H]2CCCN2C(=O)[C@@H](Cc2ccccc2)NC1=O (cyclo(V[Orn]L[dF]PV[Orn]L[dF]P)) was 35

Lab note: measured MIC of CC(C)C[C@@H]1NC(=O)[C@H](CCCN)NC(=O)[C@H](C(C)C)NC(=O)[C@@H]2CCCN2C(=O)[C@@H](Cc2ccccc2)N(N)C(=O)[C@H](CC(C)C)NC(=O)[C@H](CCCN)NC(=O)[C@H](C(C)C)NC(=O)[C@@H]2CCCN2C(=O)[C@@H](Cc2ccccc2)NC1=O (cyclo(L[dF]PV[Orn]L[X1]PV[Orn])) was 40

Lab note: measured MIC of CC(C)C[C@@H]1NC(=O)[C@H](CCCN)N(N)C(=O)[C@H](C(C)C)NC(=O)[C@@H]2CCCN2C(=O)[C@@H](Cc2ccccc2)N(N)C(=O)[C@H](CC(C)C)NC(=O)[C@H](CCCN)NC(=O)[C@H](C(C)C)NC(=O)[C@@H]2CCCN2C(=O)[C@@H](Cc2ccccc2)NC1=O (cyclo(L[dF]PV[Orn]L[X1]PV[Orn(Nα-NH2)])) was 30

Lab note: measured MIC of CC(C)C[C@@H]1NC(=O)[C@H](CCCN)N(N)C(=O)[C@H](C(C)C)NC(=O)[C@@H]2CCCN2C(=O)[C@@H](Cc2ccccc2)NC(=O)[C@H](CC(C)C)NC(=O)[C@H](CCCN)N(N)C(=O)[C@H](C(C)C)NC(=O)[C@@H]2CCCN2C(=O)[C@@H](Cc2ccccc2)NC1=O (cyclo(L[dF]PV[Orn(Nα-NH2)]L[dF]PV[Orn(Nα-NH2)])) was 20

This collection of values is drawn from ChEMBL document CHEMBL4622897.
